Data origin: ChEMBL document CHEMBL1130392

target: Acetylcholinesterase (Homo sapiens)
Classes are defined on IC50 with ranges group 1: < 0.2 µM; group 2: ≥ 0.2 µM and < 3 µM; group 3: ≥ 3 µM

Example entries begin here.
{"Molecule": "CNC(=O)Oc1ccc2c(c1)[C@]1(C)CCN(C)C1N2Cc1ccccc1 (stereo partly specified)", "Label": "group 1"}
{"Molecule": "CN1CC[C@]2(C)c3cc(OC(=O)Nc4ccccc4)ccc3N(Cc3ccccc3)C12 (stereo partly specified)", "Label": "group 3"}
{"Molecule": "CN1CC[C@]2(C)c3cc(OC(=O)Nc4ccccc4)ccc3NC12 (stereo partly specified)", "Label": "group 3"}

Any idea which band CNC(=O)Oc1ccc2c(c1)[C@]1(C)CCN(C)C1N2 (stereo partly specified) is in?
group 1

Any idea which band CN1CC[C@]2(C)c3cc(OC(=O)Nc4ccccc4)ccc3N(C)C12 (stereo partly specified) is in?
group 3

Any idea which band CN1CC[C@@]2(C)c3cc(OC(=O)Nc4ccccc4)ccc3N(Cc3ccccc3)C12 (stereo partly specified) is in?
group 2

Any idea which band CNC(=O)Oc1ccc2c(c1)[C@@]1(C)CCN(C)C1N2 (stereo partly specified) is in?
group 2

Any idea which band CN1CC[C@@]2(C)c3cc(OC(=O)Nc4ccccc4)ccc3N(C=O)C12 (stereo partly specified) is in?
group 2

====

molecular target: Acetylcholinesterase (Homo sapiens, UniProt P22303)
Sequence (P22303 whole entry): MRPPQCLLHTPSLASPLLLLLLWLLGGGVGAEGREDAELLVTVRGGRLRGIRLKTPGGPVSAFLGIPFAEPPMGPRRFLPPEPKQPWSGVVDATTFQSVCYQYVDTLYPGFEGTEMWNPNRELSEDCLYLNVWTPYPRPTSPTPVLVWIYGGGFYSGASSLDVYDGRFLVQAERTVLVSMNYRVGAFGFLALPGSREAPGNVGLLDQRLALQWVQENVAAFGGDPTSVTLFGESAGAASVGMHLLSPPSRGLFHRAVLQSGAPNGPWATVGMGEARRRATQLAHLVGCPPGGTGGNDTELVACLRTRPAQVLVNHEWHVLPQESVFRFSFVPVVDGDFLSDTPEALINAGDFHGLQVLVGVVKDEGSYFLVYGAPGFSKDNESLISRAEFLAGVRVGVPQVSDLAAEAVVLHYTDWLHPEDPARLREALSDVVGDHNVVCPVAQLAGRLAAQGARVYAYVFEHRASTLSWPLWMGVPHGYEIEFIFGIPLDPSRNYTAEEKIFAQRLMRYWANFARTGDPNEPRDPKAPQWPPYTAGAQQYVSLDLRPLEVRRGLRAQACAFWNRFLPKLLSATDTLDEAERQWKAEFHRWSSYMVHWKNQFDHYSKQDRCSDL
Below, each of the molecules is paired with its reported IC50 value.
Just the number please, in µM, no unit attached.

{"Molecule": "CN1CC[C@@]2(C)c3cc(OC(=O)Nc4ccccc4)ccc3N(C)C12 (stereo partly drawn)", "IC50 (µM)": 0.024}

Item CNC(=O)Oc1ccc2c(c1)[C@@]1(C)CCN(C)C1N2Cc1ccccc1 (stereo partly drawn) has what recorded IC50?
2.85

Item CNC(=O)Oc1ccc2c(c1)[C@]1(C)CCN(C)C1N2C=O (stereo partly drawn) has what recorded IC50?
0.387
